Test system: HT-29
Assay: Cytotoxicity against human HT-29 cells after 5 days by MTT assay
Type: functional, cell-based
Details: HT-29, 120 h
Parameter: IC50 (nM)
Supply the numeric figure in nM, leaving out any unit text.

Exercise: Form field: reported IC50 of N[C@@H](Cc1ccc(N(CCCl)CCCl)cc1)C(=O)O [MELPHALAN]
Solution: 3000
